Sourced from patent US20120023600A1

- TARGET_UNDER_TEST: T1, DKK1-APP (human, UniProt O94907 32-266)
- T1 sequence: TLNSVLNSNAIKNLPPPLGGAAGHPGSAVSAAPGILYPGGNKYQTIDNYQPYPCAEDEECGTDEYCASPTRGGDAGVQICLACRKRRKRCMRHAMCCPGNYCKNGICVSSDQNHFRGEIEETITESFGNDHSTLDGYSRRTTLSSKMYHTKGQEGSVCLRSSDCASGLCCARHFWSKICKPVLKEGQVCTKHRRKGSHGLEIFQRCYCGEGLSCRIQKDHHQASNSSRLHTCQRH
- ASSAY_COMMENT: cell-based or functional assay
Classification field: enter satisfied for Luciferase reporter assay; EC50 values not below 60 nM, not satisfied for values below it.

- BINDER: "MOR04456 (Fab, V domains shown, Fab with C-terminal FLAG and 6xHis tags) VH: QVQLVESGGGLVQPGGSLRLSCAASGFTFNNYGMTWVRQAPGKGLEWVSGISGSGSYTYYADSVKGRFTISRDNSKNTLYLQMNSLRAEDTAVYYCARTIYMDYWGQGTLVTVSS VL: DIVLTQSPATLSLSPGERATLSCRASQNLFSPYLAWYQQKPGQAPRLLIYGASNRATGVPARFSGSGSGTDFTLTISSLEPEDFATYYCQQYGDEPITFGQGTKVEIKR"
  CLASS: "satisfied"
- BINDER: "MOR04470 (Fab, V domains shown, Fab with C-terminal FLAG and 6xHis tags) VH: QVQLVESGGGLVQPGGSLRLSCAASGFTFSSYWMSWVRQAPGKGLEWVSVISSDSSSTYYADSVKGRFTISRDNSKNTLYLQMNSLRAEDTAVYYCARHGIDFDHWGQGTLVTVSS VL: DIALTQPASVSGSPGQSITISCTGTSSDLGGYNYVSWYQQHPGKAPKLMIYDVNNRPSGVSNRFSGSKSGNTASLTISGLQAEDEADYYCQSYASGNTKVVFGGGTKLTVLG"
  CLASS: "not satisfied"
- BINDER: "MOR04454 (Fab, V domains shown, Fab with C-terminal FLAG and 6xHis tags) VH: QVQLVESGGGLVQPGGSLRLSCAASGFTFSNYGLHWVRQAPGKGLEWVSSISYYGSSTYYADSVKGRFTISRDNSKNTLYLQMNSLRAEDTAVYYCARDGSHMDKPPGYVFAFWGQGTLVTVSS VL: DIQMTQSPSSLSASVGDRVTITCRASQGIKNYLNWYQQKPGKAPKLLIGAASSLQSGVPSRFSGSGSGTDFTLTISSLQPEDFATYYCLQYYGMPPTFGQGTKVEIKR"
  CLASS: "satisfied"
- BINDER: "MOR04455 (Fab, V domains shown, Fab with C-terminal FLAG and 6xHis tags) VH: QVQLVESGGGLVQPGGSLRLSCAASGFTFSSYGMSWVRQAPGKGLEWVSGISGSGSYTYYADSVKGRFTISRDNSKNTLYLQMNSLRAEDTAVYYCARHYMDHWGQGTLVTVSS VL: DIQMTQSPSSLSASVGDRVTITCRASQDISNYLHWYQQKPGKAPKLLIYGASNLQSGVPSRFSGSGSGTDFTLTISSLQPEDFAVYYCQQYDSIPMTFGQGTKVEIKR"
  CLASS: "not satisfied"
- BINDER: "MOR04461 (Fab, V domains shown, Fab with C-terminal FLAG and 6xHis tags) VH: QVQLVESGGGLVQPGGSLRLSCAASGFTFSSYWMSWVRQAPGKGLEWVSGISYSGSNTHYADSVKGRFTISRDNSKNTLYLQMNSLRAEDTAVYYCARMGIDLDYWGQGTLVTVSS VL: DIALTQPASVSGSPGQSITISCTGTSSDVGGFNYVSWYQQHPGKAPKLMIHDGSNRPSGVSNRFSGSKSGNTASLTISGLQAEDEADYYCSTWDMTVDFVFGGGTKLTVLG"
  CLASS: "not satisfied"

(Q) Confirm if Luciferase reporter assay; EC50 reported for the binder MOR04516 (Fab, V domains shown, Fab with C-terminal FLAG and 6xHis tags; also called MOR4516) VH: QVQLVQSGAEVKKPGESLKISCKGSGYSFTNYYIGWVRQMPGKGLEWMGIIYPTDSYTNYSPSFQGQVTISADKSISTAYLQWSSLKASDTAMYYCARGIPFRMRGFDYWGQGTLVTVSS VL: DIVLTQPPSVSGAPGQRVTISCSGSSSNIGSSFVNWYQQLPGTAPKLLIGNNSNRPSGVPDRFSGSKSGTSASLAITGLQSEDEADYYCASFDMGSPNVVFGGGTKLTVLG is 60 nM or above.
(A) not satisfied
